What activity change, negative = inhibition was measured for each of the following?
- EXPERIMENT DESCRIPTION: qHTS Assay for Inhibitors of Fructose-1,6-bisphosphate Aldolase from Giardia Lamblia: Coupling assay counterscreen; note: % is set by controls: 0 for no effect and ±100 for the full control effect
- CONDITION LABEL: coupling enzyme system counterscreen, AmpLite Red fluorescence; at 58.2 µM (top of the series)
Hit rate of the full screen: of about 290,000 compounds, about 2,000 (0.69%) were called active. Only a selection was taken, and actives are over-represented in it overall.
I only need the number, in %, no unit after it.

Input line: What value of measured activity change, negative = inhibition is listed for NS(=O)(=O)c1cccc(NC(=O)CC23CC4CC(CC(Br)(C4)C2)C3)c1 ?
Output line: -0.295

Input line: What value of measured activity change, negative = inhibition is listed for CCc1ccccc1NC(=O)CN(C)C(=O)COc1ccc(C)nc1[N+](=O)[O-] ?
Output line: -2.08

Input line: What value of measured activity change, negative = inhibition is listed for Cc1ccc(OCC(=O)Nc2ccccc2Sc2ccc(Cl)cc2)c([N+](=O)[O-])n1 ?
Output line: -30.3

Input line: What value of measured activity change, negative = inhibition is listed for O=C1C2C3C=CC(C3)C2C(=O)N1c1ccc(-c2nc3ccccc3c(=O)o2)cc1 (centres undefined) ?
Output line: -9.8

Input line: What value of measured activity change, negative = inhibition is listed for CCN(CC)c1ccc2cc(C(N)=O)/c(=N\NC(=O)c3ccncc3)oc2c1 ?
Output line: -7.4

Input line: What value of measured activity change, negative = inhibition is listed for COc1cccc([C@@H]2Oc3ccc(Br)cc3C(=O)[C@H]2OC(=O)NCc2ccc3c(c2)OCO3)c1 ?
Output line: 1.06

Input line: What value of measured activity change, negative = inhibition is listed for O=c1c(O)c(Br)ccc2c(Br)c(O)c(O)c(O)c12 ?
Output line: -45.3

Input line: What value of measured activity change, negative = inhibition is listed for COc1ccc2cc1Oc1ccc(cc1)C[C@H]1c3cc(c(OC)cc3CCN1C)Oc1c(O)c(OC)cc3c1[C@H](C2)N(C)CC3 ?
Output line: 3.01

Input line: What value of measured activity change, negative = inhibition is listed for Cc1cccc(C)c1NC(=O)CN1C(=O)C(C)Oc2ccccc21 (centres undefined) ?
Output line: 0.123

Input line: What value of measured activity change, negative = inhibition is listed for COc1ccc(C2Nc3ccccc3C(=O)N2c2ccc(F)cc2)cc1Cn1nnc2ccccc21 (centres undefined) ?
Output line: 2.84

Input line: What value of measured activity change, negative = inhibition is listed for CCOCCCNC(=O)c1cn(CC(C)C)c(=O)c2c1c1ccccc1n2C ?
Output line: 1.3

Input line: What value of measured activity change, negative = inhibition is listed for CC(C)(O/N=C(\C(=O)N[C@@H]1C(=O)N2C(C(=O)[O-])=C(C[n+]3ccccc3)CS[C@@H]12)c1csc(N)n1)C(=O)O ?
Output line: 1.97

Input line: What value of measured activity change, negative = inhibition is listed for Cc1cccc(/C=N/NC(=O)CNc2cccc3ccccc23)n1 ?
Output line: -46.7

Input line: What value of measured activity change, negative = inhibition is listed for COCCNC(=O)Nc1ccc2nc(-c3ccco3)c(-c3ccco3)nc2c1 ?
Output line: -35
